# credit: patent US7504412B2

Heads up, these compounds all have pIC50 values measured for human MCH-1R (Homo sapiens).
Structures can show the parent of a compound that is named as a salt.
Remember, pIC50 is on a log scale: it is -log10 of the molar concentration.

COMPOUND	SYSTEM	OBSERVATION_TYPE	VALUE_REPORTED
Cc1c(C2CC2)nc2ccc(NC(=O)c3ccc(-c4ccc(F)cc4)cn3)cn12 [Example 14, hydrochloride]	human MCH-1R (Homo sapiens)	pIC50	8.70

Task item: Which measured pIC50 value corresponds to Cc1c(C2CC2)nc2ccc(NC(=O)c3ccc(-c4ccccn4)cc3)cn12 [Example 17, hydrochloride] ?
Reply: 8.48
